- TESTED_ON: T1, human IL-23 (Sino Biological, CT048-H08H) (human, UniProt Q9NPF7 20-189; P29460 23-328)
- T1 construct: also called human IL-23 protein; Human IL-23 p19
- T1 sequence (looked up) 1: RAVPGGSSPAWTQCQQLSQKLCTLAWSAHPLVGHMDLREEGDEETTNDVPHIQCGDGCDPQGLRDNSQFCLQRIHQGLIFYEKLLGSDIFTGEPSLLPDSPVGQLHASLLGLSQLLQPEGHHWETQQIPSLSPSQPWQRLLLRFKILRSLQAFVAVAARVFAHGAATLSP
- T1 sequence (looked up) 2: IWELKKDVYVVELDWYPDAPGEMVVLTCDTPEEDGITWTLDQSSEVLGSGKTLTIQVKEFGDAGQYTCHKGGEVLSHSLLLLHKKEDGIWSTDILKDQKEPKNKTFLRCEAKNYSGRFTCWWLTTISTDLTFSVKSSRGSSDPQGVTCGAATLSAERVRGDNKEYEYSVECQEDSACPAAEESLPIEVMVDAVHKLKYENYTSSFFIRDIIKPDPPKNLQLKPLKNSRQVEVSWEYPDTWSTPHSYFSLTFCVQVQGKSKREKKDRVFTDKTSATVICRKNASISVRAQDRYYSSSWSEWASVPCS
- PROTOCOL_DESCRIPTION: SPR (Biacore), Protein A capture of sample, 1:1 model
RESULT_TYPE: kon
Returns: string containing the numeric result and its unit.

// worked examples, kon included
Data request, read-out kon, for risankizumab (antibody, human IgG1, kappa, L234A L235A, V domains shown, control anti-IL-23 antibody; also called control molecule) VH: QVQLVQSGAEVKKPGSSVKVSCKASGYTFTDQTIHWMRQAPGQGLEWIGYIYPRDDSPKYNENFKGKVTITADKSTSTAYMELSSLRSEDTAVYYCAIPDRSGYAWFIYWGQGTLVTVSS VL: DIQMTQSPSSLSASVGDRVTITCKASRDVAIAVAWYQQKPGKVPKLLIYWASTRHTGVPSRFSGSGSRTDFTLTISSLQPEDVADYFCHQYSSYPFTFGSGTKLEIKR
754000 M⁻¹ s⁻¹

What does the record list as kon for Hu38-9 (antibody, human IgG1, kappa, L234A L235A, V domains shown, humanized mAb38, IgG1/kappa) VH: EFQLVQSGAEVKKPGASVKVSCKASGYSFTDHNMNWVRQAPGQRLEWMGVINPNYGTTTYNQKFKGRVTITVDQSASTAYMELSSLRSEDTAVYYCARRGFAYWGQGTLVTVSS VL: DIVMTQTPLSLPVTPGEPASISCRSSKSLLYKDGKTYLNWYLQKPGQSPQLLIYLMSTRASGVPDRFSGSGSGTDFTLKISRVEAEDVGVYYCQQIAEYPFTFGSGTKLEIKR ?
236000 M⁻¹ s⁻¹

Shift focus to the following entry.
I am curious: what kon value has been reported for Hu38-2 (antibody, human IgG1, kappa, L234A L235A, V domains shown, humanized mAb38, IgG1/kappa) VH: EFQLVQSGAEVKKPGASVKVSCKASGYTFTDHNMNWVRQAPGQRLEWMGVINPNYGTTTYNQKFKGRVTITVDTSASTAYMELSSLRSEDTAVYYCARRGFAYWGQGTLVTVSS VL: DIVMTQTPLSLPVTPGEPASISCRSSKSLLYKDGKTYLNWFLQKPGQSPQLLIYLMSTRASGVPDRFSGSGSGTDLTLKISRVEAEDVGVYYCQQIAEYPFTFGSGTKLEIKR ?
337000 M⁻¹ s⁻¹
